Test: Plasma and tumor pharmacokinetics in H460 tumor-bearing nude mice
Assay type: in vivo, mouse
Details: female, HRLN nude, mouse, in vivo, iv, 25 mg/kg, Tmax, analyte docetaxel, tumor
endpoint label: Tmax (h)

compound="CC(=O)O[C@@]12CO[C@@H]1C[C@H](O)[C@@]1(C)C(=O)[C@H](O)C3=C(C)[C@@H](OC(=O)[C@H](O)[C@@H](NC(=O)OC(C)(C)C)c4ccccc4)C[C@@](O)([C@@H](OC(=O)c4ccccc4)[C@H]21)C3(C)C [Docetaxel, reference compound]" unit_spec=h value=4

====

Assay: Plasma and tumor pharmacokinetics in H460 tumor-bearing nude mice
Type: in vivo, mouse
Details: female, HRLN nude, mouse, in vivo, iv, 25 mg/kg
endpoint label: concentration at 72 hr

compound="CC(=O)O[C@@]12CO[C@@H]1C[C@H](O)[C@@]1(C)C(=O)[C@H](O)C3=C(C)[C@@H](OC(=O)[C@H](O)[C@@H](NC(=O)OC(C)(C)C)c4ccccc4)C[C@@](O)([C@@H](OC(=O)c4ccccc4)[C@H]21)C3(C)C [Docetaxel, reference compound]" value="< 1 ng/mL"

====

Experiment: Pharmacokinetics after IV infusion in Beagle dogs
Type: in vivo, dog
Conditions: Beagle, dog, plasma; male dogs, single IV dose 0.75 mg/kg; read-out: Cmax, analyte docetaxel
endpoint label: Cmax (ng/mL)

compound="CC(=O)O[C@@]12CO[C@@H]1C[C@H](O)[C@@]1(C)C(=O)[C@H](O)C3=C(C)[C@@H](OC(=O)[C@H](O)[C@@H](NC(=O)OC(C)(C)C)c4ccccc4)C[C@@](O)([C@@H](OC(=O)c4ccccc4)[C@H]21)C3(C)C [Docetaxel, reference compound]" unit_spec=ng/mL value=223

====

Experiment: Plasma and tumor pharmacokinetics in H460 tumor-bearing nude mice
Assay type: in vivo, mouse
Settings: female, HRLN nude, mouse, in vivo, iv, Tmax, analyte docetaxel, tumor
endpoint label: Tmax

compound="CC(=O)O[C@@]12CO[C@@H]1C[C@H](O)[C@@]1(C)C(=O)[C@H](O)C3=C(C)[C@@H](OC(=O)[C@H](O)[C@@H](NC(=O)OC(C)(C)C)c4ccccc4)C[C@@](O)([C@@H](OC(=O)c4ccccc4)[C@H]21)C3(C)C [Docetaxel, reference compound]" value="≤ 4 h"
